test: binders of probe aFST on microarray, primary screen, stem cell growth factor project, biochemical, small-molecule microarray, fluorescence 635/667 (AID 1086); details: higher = more signal;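 also: score merges 667 nm fluorescence with signal-to-noise of each printed compound spot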
Output satisfied for composite z-score not less than 0.7; output not satisfied otherwise.

O=C(CS)NCCCCCCNC(=O)[C@@H]1C[C@@H]2C(=O)NCC(=O)N2[C@@H]1c1cccc(OCCO)c1 : not satisfied
C=C(CCCC)/C(=C/C[C@@H](OC(=O)c1ccncc1)c1ccc(OCCO)cc1)c1cc(C(=O)OC)ccc1OC : not satisfied

Proceed to the following item.
QUERY: Record COc1cc2c(cc1OC)CN(C(=O)[C@@H]1[C@H]3C(=O)O[C@H](c4ccccc4)[C@H](c4ccccc4)N3[C@H](c3ccc(O)cc3)[C@@]13C(=O)Nc1ccccc13)CC2 ; criterion: composite z-score no lower than 0.7. Met?
RESULT: not satisfied

---

molecular target: Calmodulin-1 (Homo sapiens); test: CALM1 binders on microarrays, EGTA buffer, profiling panel, biochemical, small-molecule microarray, Cy5-labelled CALM1 (AID 1111); settings: Cy5-CALM1 binding fluorescence, higher = more signal;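 also: labelled calmodulin applied in Tris saline Tween buffer holding calcium plus EGTA and DTT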
// reported composite z-score for each item listed

Answered examples (5):
CN(C)CCCC[C@@H]1NC(=O)[C@@H]2C[C@H](C(=O)NCCCCCCN)[C@H](c3cccc(OCCO)c3)N2C1=O : 1.23
C=CCC(OC(C)=O)[C@@H]1[C@@H](N(Cc2ccc(-c3cccc(C(F)(F)F)c3)o2)C(=O)c2ccc(C)cc2)c2cc(OCCCO)ccc2N1C(=O)Cc1ccc2ccccc2c1 (some centres not stated) : -0.424
C=C(CCCC)/C(=C/C[C@H](OC(=O)c1ccncc1)c1ccccc1OCCO)c1cnc2ccccc2c1 : 0.154
C=C(COC)C(=O)CC[C@@H](OC(C)=O)c1ccc(CO)o1 : -0.401
NC(=O)[C@@H]1[C@H]2C(=O)O[C@H](c3ccccc3)[C@H](c3ccccc3)N2[C@H](c2ccc(O)cc2)[C@@]12C(=O)Nc1ccccc12 : -0.395

QUERY: Consider the compound O=C(NC1CC1)[C@@H]1c2ccccc2C(=O)N(Cc2ccccc2Cl)[C@H]1c1ccc(CO)cc1 and give its measured composite z-score.
RESULT: 1.08

QUERY: Same read-out for C=CCC(OC(C)=O)[C@@H]1[C@@H](N(Cc2cccc3ccccc23)C(=O)c2ccc(-c3ccccc3)cc2)c2cc(OCCCO)ccc2N1C(=O)c1ccc2ccccc2c1 (some centres not stated) ?
RESULT: 0.268

---

// reported z-score for each item listed
test: E. coli growth modulation, two-sided OD650, primary screen, E. coli filamentation project, strain DRC41, 24 h (AID 1093); conditions: OD650, 24 h, higher = more signal, called active from +8 up or from −8 down;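 also: MC1000 strain lacking acrAB efflux and sulA so SOS filamentation is blocked; test concentration not given here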
Active and inactive are the calls of the source.

CCCC[C@H]1OB(O)C[C@H]2C1=C(COC)Cn1c(=O)n(-c3ccccc3)c(=O)n12 : 0.498 (inactive)
C=C(CCCC)/C(=C/C[C@@H](OC(C)=O)c1ccc(OCCO)cc1)c1cnc2ccccc2c1 : 0.796 (inactive)
CC(C)=CCN[C@H](CO)c1ccccc1 : -0.291 (inactive)
COc1ccc(CCNC(=O)[C@@]2(C)c3ccccc3C(=O)N(C(C)C)[C@H]2c2ccc(CO)cc2)cc1 : 0.721 (inactive)
C=CCN1C(=O)[C@]2(O[C@H](CCn3cc([C@H](O)c4ccccc4)nn3)[C@@H]([Si](C)(C)c3ccc(OC)cc3)[C@@H]2C)c2ccccc21 : -0.68 (inactive)

From here, focus on the item given below.
QUERY: Consider the molecule Cc1nc2cc(Br)ccc2c(=O)o1 and give its measured z-score.
RESULT: -1.07 (inactive)
